Hello, the source for this data is patent US20210115124A1, in case you need it.

Molecular target: T1, human VEGF (hVEGF) (human, UniProt P15692 181-395)
T1 construct: also called VEGF-A
T1 sequence: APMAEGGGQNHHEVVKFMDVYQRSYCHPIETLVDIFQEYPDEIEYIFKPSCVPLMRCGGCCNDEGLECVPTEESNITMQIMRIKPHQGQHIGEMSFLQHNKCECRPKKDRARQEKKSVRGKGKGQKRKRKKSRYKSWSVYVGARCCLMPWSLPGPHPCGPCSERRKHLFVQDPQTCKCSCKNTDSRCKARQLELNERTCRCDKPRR
Assay: SPR single-cycle;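 further: fab variants injected over hVEGF immobilized on a CM5 chip (Biacore T200), threefold dilution series from 0.02 to 50 nM, kinetics fitted with a 1:1 Langmuir model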
Here the recorded kon is given for each entry.
The figure you give is taken to be in M⁻¹ s⁻¹; do not add the unit.

Examples from the recorded data:
binder="G6.31 HC-T28K (Fab, name in Kabat numbering, V domains shown, Fab) VH: EVQLVESGGGLVQPGGSLRLSCAASGFKISDYWIHWVRQAPGKGLEWVAGITPAGGYTYYADSVKGRFTISADTSKNTAYLQMNSLRAEDTAVYYCARFVFFLPYAMDYWGQGTLVTVSS VL: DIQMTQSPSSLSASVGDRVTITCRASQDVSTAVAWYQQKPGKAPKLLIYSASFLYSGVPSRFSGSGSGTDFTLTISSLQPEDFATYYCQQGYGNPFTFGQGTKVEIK" parameter=kon units_of_measure="M⁻¹ s⁻¹" reported_measurement=975000
binder="G6.31 LC-S77E (Fab, V domains shown, Fab) VH: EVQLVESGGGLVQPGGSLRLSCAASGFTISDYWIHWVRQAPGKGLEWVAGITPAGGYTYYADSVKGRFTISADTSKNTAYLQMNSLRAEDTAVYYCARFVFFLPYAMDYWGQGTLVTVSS VL: DIQMTQSPSSLSASVGDRVTITCRASQDVSTAVAWYQQKPGKAPKLLIYSASFLYSGVPSRFSGSGSGTDFTLTISELQPEDFATYYCQQGYGNPFTFGQGTKVEIK" parameter=kon units_of_measure="M⁻¹ s⁻¹" reported_measurement=711000
binder="G6.31 HC-K43E (Fab, name in Kabat numbering, V domains shown, Fab) VH: EVQLVESGGGLVQPGGSLRLSCAASGFTISDYWIHWVRQAPGEGLEWVAGITPAGGYTYYADSVKGRFTISADTSKNTAYLQMNSLRAEDTAVYYCARFVFFLPYAMDYWGQGTLVTVSS VL: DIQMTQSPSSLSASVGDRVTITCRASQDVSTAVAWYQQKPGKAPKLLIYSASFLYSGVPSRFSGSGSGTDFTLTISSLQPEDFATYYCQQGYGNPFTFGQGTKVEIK" parameter=kon units_of_measure="M⁻¹ s⁻¹" reported_measurement=380000

Input: kon for G6.31 HC-A60E (Fab, name in Kabat numbering, V domains shown, Fab) VH: EVQLVESGGGLVQPGGSLRLSCAASGFTISDYWIHWVRQAPGKGLEWVAGITPAGGYTYYEDSVKGRFTISADTSKNTAYLQMNSLRAEDTAVYYCARFVFFLPYAMDYWGQGTLVTVSS VL: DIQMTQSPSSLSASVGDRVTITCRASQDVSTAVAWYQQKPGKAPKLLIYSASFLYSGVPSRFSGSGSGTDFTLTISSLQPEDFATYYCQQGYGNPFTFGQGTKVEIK ?
Output: 524000

Input: Same lookup for G6.31 HC-T77K (Fab, name in Kabat numbering, V domains shown, Fab) VH: EVQLVESGGGLVQPGGSLRLSCAASGFTISDYWIHWVRQAPGKGLEWVAGITPAGGYTYYADSVKGRFTISADTSKNKAYLQMNSLRAEDTAVYYCARFVFFLPYAMDYWGQGTLVTVSS VL: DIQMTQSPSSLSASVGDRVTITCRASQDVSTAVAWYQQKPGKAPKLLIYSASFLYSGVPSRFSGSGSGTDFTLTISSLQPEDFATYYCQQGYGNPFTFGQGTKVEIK , please.
Output: 2.03e+06
